Measured values drawn from ChEMBL document CHEMBL1201862 for this set.

- Tested on: SW-620
- protocol_description: NCI tumour cell line growth inhibition, 48 h
Active and inactive are the calls of the source. Rule as the data show it: active = GI50 up to about 1.1 µM and inactive = higher.
# GI50 annotations

compound: O=c1c(Cc2c(O)ccc3ccccc23)nnc2sc(-c3nn4c(=O)c(Cc5c(O)ccc6ccccc56)nnc4s3)nn12
GI50: > 100 µM (inactive)
//
compound: CC(C)(C)C(=O)OC12/C(=N/O)CCCCCC1c1ccccc12 (configuration not stated)
GI50: 17.6 µM (inactive)
//
compound: C/C(Nc1ccc(F)cc1)=C1/CCOC1=O
GI50: > 100 µM (inactive)
//
compound: CCC(CN(C)C)C(=O)c1ccco1 (configuration not stated)
GI50: > 100 µM (inactive)
//
compound: Cn1cc2ccccc2c1-c1nc(F)nc(Oc2ccc3c(c2)CC[C@@H]2C3CC[C@@]3(C)C2C[C@H](O)[C@@H]3O)n1 (some centres not stated)
GI50: 4.14 µM (inactive)
//
compound: Cn1c2ccccc2c(=O)c2cccc(C(=O)NCC(=O)O)c21
GI50: > 100 µM (inactive)
//
compound: CCOC(=O)C1(c2ccccc2)CCCNCC1 (configuration not stated)
GI50: > 100 µM (inactive)
//
compound: CCC1C(=O)OCc2c1cc1n(c2=O)CCC12OCCO2 (configuration not stated)
GI50: > 100 µM (inactive)
//
compound: CC(=O)/C(=C\C1=CCCO1)C(=O)Nc1ccccc1C
GI50: > 100 µM (inactive)
//
compound: CC(C)(C)CC(C)(C)c1ccc(OCCOCC[N+](C)(C)Cc2ccccc2)cc1 [BENZETHONIUM CHLORIDE]
GI50: 2.69 µM (inactive)
//
compound: CCCc1c(O)nc2ccccc2c1O
GI50: > 100 µM (inactive)
//
compound: CN(O)C(=O)/C=C/c1ccc(OCc2cccc(Cl)c2)cc1
GI50: 26.9 µM (inactive)
//
compound: COC12OC3(C4OC41)C(C(=O)O[C@H]3CO[Si](C)(C)C(C)(C)C)C2C(=O)Oc1ccccc1 (some centres not stated)
GI50: > 100 µM (inactive)
//
compound: CC1N=C(c2ccccc2)OC1=O (configuration not stated)
GI50: > 100 µM (inactive)
//
compound: COC(=O)C1(Cc2ccc3c(c2)CCC3)Cc2ccc3c(c2C1)CCC3 (configuration not stated)
GI50: 25.2 µM (inactive)
//
compound: COc1cc(C2SC(=N)Nc3c2c(C)nn3C(=O)Cc2ccccc2)cc(OC)c1OC (configuration not stated)
GI50: > 100 µM (inactive)
//
compound: CC(=O)NC1=C(C)C(=O)c2c(nc3n2CCC3OC(=O)c2ccccc2)C1=O (configuration not stated)
GI50: 1.79 µM (inactive)

* * *

- Test system: KM12
- protocol_description: NCI tumour cell line growth inhibition, 48 h
Active and inactive are the calls of the source. No stated cut-off is given here; in the data, active = GI50 up to about 1.1 µM and inactive = higher.
# GI50 annotations

compound: C=C1CC(OC)(C(OC)C(=O)N[C@H]2OCO[C@H]3C2O[C@H](C[C@@H](COC)OC)C(C)(C)C3OC)O[C@H](C)[C@@H]1C (some centres not stated)
GI50: 0.603 µM (active)
--
compound: O=S1(=O)c2ccccc2N(O)C2=NCCN21
GI50: > 100 µM (inactive)
--
compound: COc1cc(C2SC(=N)Nc3c2c(C)nn3C(=O)Cc2ccccc2)cc(OC)c1OC (configuration not stated)
GI50: > 100 µM (inactive)
--
compound: COC(=O)/C(=N\NC(=S)NN)C(C(=O)C(=O)Nc1ccccc1C(N)=O)c1nc2ccccc2nc1O (configuration not stated)
GI50: > 100 µM (inactive)
--
compound: CC[C@]12C=CCN3CCC4(c5cc(/N=N/c6ccccc6)c(OC)cc5N(C)[C@H]4[C@@](O)(C(=O)OC)[C@@H]1OC(C)=O)[C@@H]32 (some centres not stated)
GI50: 18.7 µM (inactive)
--
compound: Nc1ccc(Oc2ccc(C3(c4ccc(Oc5ccc(N)c(O)c5)cc4)C4CC5CC(C4)CC3C5)cc2)cc1O
GI50: 1.91 µM (inactive)
--
compound: CC(C)CC1c2[nH]c3ccccc3c2C[C@H]2C(=O)NC(COC(C)(C)C)C(=O)N12 (some centres not stated)
GI50: 24.1 µM (inactive)
